Tested on: NCI-H23 lung
Experiment: NCI-60 one-dose screen, 48 h
Run conditions: 10 µM unless noted
About 83,000 compounds went through this panel and 20% of them were active in at least one assay; those are over-represented in the sample as a whole. Calls of active or inactive are those of the source. How the source made its calls: active means growth percent below 10; inactive means the rest.
Result category, one only: active, inactive

The following compounds have reported results that may help.
| Compound | Category |
| --- | --- |
| C=C1C(=O)O[C@H]2[C@H]1CC/C(COC(=O)/C=C\C(=O)NCc1ccc(Cn3c(=O)sn(CCCC)c3=O)cc1)=C\CC[C@@]1(C)O[C@@H]21 | active |
| Nc1ccc(-c2cc3c(Nc4ccc(OCc5cccc(F)c5)c(Cl)c4)ncnc3s2)cc1 | inactive |
| CC[C@@H](C[C@H](CCO)c1ccccc1)c1cc2ccccc2o1 | inactive |

Hello, I am checking results. What call was entered for OC(COc1cccc2ccccc12)CN1CCN(c2ccccc2)CC1 (stereo not given) ?
inactive

Per the records of this test, what outcome belongs to C=CCO[C@H]1CO[C@H]2[C@@H]1OC[C@@H]2Oc1ccc(Nc2ccnc(Nc3ccc(O[C@H]4CO[C@H]5[C@@H]4OC[C@@H]5OCC=C)c(Cl)c3)n2)cc1Cl ?
active

What did the test return for Cc1cc(Cc2cc(C)cc(C(C)(C)C)c2O)c(O)c(C(C)(C)C)c1 ?
inactive

Per the assay record, what outcome was assigned to CCCCCOC(=O)c1cccc(NC(=O)CN(CC)CC)c1 ?
inactive

Which result was noted for this compound in the test: CCNCCNc1cc(C2CCCC2)c(C#N)c2nc3ccccc3n12
inactive

Hi team, can someone confirm the assay call for O=C1Nc2ccccc2/C1=N/N=C/c1ccsc1 ?
inactive

Status in this test for O=[N+]([O-])c1cccc(/C=C/c2ccccn2)c1 ?
inactive

----------
growth overview
Tested on: SF-268 CNS
Experiment: NCI-60 one-dose screen, 48 h (100 = growth as untreated, 0 = no growth, -100 = all killed)
Run conditions: 10 µM unless noted
Compounds without any hit were thinned out: in the full panel of roughly 83,000, 20% have a hit. Activity calls are given as the source filed them. The calls were made as follows: active = growth percent below 10; inactive = the rest.

| Molecule | Result |
| --- | --- |
| C/C(=N\NC(=O)Cn1c(-c2ccc(S(C)(=O)=O)cc2)nc2cc(Cl)ccc21)c1ccc(Cl)cc1 | 72.4% (inactive) |

Please list growth recorded for the molecule Cc1c(C)c2c(c(C)c1NC(=O)/C=C\C(=O)O)CCC(C)(CCCC(C)CCCC(C)CCCC(C)C)O2 (stereo not given)
53.9% (inactive)

Tell me growth reported for Cc1nc(C)c(-c2nn3c(-c4cccc(F)c4)nnc3s2)s1
97.6% (inactive)

Write down growth measured for item CCCCC1COc2cccc3c(SCC(=O)N(C)c4cccc(Cl)c4)cc[n+]1c23 (stereo not given)
118% (inactive)

Name the recorded growth of the item Clc1ccc(/C=C/c2nc(Nc3ccc(Cl)cc3)c3ccccc3n2)cc1 in your answer.
102% (inactive)

Fill in reported growth for this entry: c1ccc2[nH]c(SSc3nc4ncncc4[nH]3)nc2c1
30.1% (inactive)

Give growth for the following molecule: Cc1ccc(C)c2c1C(=O)OC2=O
98.8% (inactive)

Determine its reported growth: CN1CCN(c2ccc(Nc3ncc(Cl)c(NC[C@@H]4CCCO4)n3)cc2)CC1
24.6% (inactive)

Consider the molecule Cc1cc(N(CCCNc2ccnc3cc(Cl)ccc23)Cc2ccccn2)nc(N2CCCC2)n1 . State its measured growth.
67.3% (inactive)

Provide growth value for the following molecule: CCCCNC(=O)NS(=O)(=O)c1ccc(N2N=C(c3ccc(C)cc3C)CC2c2ccc(N(C)C)cc2)cc1 (stereo not given)
79.9% (inactive)

FYI, the data here is from PubChem BioAssay (NCI).
